B1: library; a variant is named by its letters at N, in order (parent)
chain: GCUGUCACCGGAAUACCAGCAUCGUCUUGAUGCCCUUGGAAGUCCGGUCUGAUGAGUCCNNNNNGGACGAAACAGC

# Variants of: B1
# Procedure text: FACS-Seq fitted mean relative fluorescence mCherry/BFP with ligand (log10 relative fluorescence); ligand concentration (+) FACS-Seq: 1 mM; higher = higher reporter protein expression
# Test context: HEK293T, ligand present: yes
Group membership follows FACS-Seq fitted mean (log10) per the scheme range 1 (below 0.7), range 2 (0.7 to below 0.8), range 3 (0.8 or more)

Solved entries:
{"columns": ["Sequence chain", "Category"],
 "data": [
  ["GCUGUCACCGGAAUACCAGCAUCGUCUUGAUGCCCUUGGAAGUCCGGUCUGAUGAGUCCAUAUUGGACGAAACAGC", "range 3"],
  ["GCUGUCACCGGAAUACCAGCAUCGUCUUGAUGCCCUUGGAAGUCCGGUCUGAUGAGUCCUCGCUGGACGAAACAGC", "range 1"],
  ["GCUGUCACCGGAAUACCAGCAUCGUCUUGAUGCCCUUGGAAGUCCGGUCUGAUGAGUCCAACGAGGACGAAACAGC", "range 1"]
]}

Challenge: Lab note: sort `GCUGUCACCGGAAUACCAGCAUCGUCUUGAUGCCCUUGGAAGUCCGGUCUGAUGAGUCCUCCUAGGACGAAACAGC` into the matching FACS-Seq fitted mean (log10) band.
Response given: range 3

Challenge: How about `GCUGUCACCGGAAUACCAGCAUCGUCUUGAUGCCCUUGGAAGUCCGGUCUGAUGAGUCCUGUGAGGACGAAACAGC` ?
Response given: range 3

Challenge: How about `GCUGUCACCGGAAUACCAGCAUCGUCUUGAUGCCCUUGGAAGUCCGGUCUGAUGAGUCCUACAGGGACGAAACAGC` ?
Response given: range 3

Challenge: How about `GCUGUCACCGGAAUACCAGCAUCGUCUUGAUGCCCUUGGAAGUCCGGUCUGAUGAGUCCUGCUUGGACGAAACAGC` ?
Response given: range 3

Challenge: How about `GCUGUCACCGGAAUACCAGCAUCGUCUUGAUGCCCUUGGAAGUCCGGUCUGAUGAGUCCCAUUAGGACGAAACAGC` ?
Response given: range 2

Challenge: How about `GCUGUCACCGGAAUACCAGCAUCGUCUUGAUGCCCUUGGAAGUCCGGUCUGAUGAGUCCUACCCGGACGAAACAGC` ?
Response given: range 1

Challenge: How about `GCUGUCACCGGAAUACCAGCAUCGUCUUGAUGCCCUUGGAAGUCCGGUCUGAUGAGUCCAGAUAGGACGAAACAGC` ?
Response given: range 2

Challenge: How about `GCUGUCACCGGAAUACCAGCAUCGUCUUGAUGCCCUUGGAAGUCCGGUCUGAUGAGUCCUACUGGGACGAAACAGC` ?
Response given: range 1

Challenge: How about `GCUGUCACCGGAAUACCAGCAUCGUCUUGAUGCCCUUGGAAGUCCGGUCUGAUGAGUCCCCUGCGGACGAAACAGC` ?
Response given: range 3

Challenge: How about `GCUGUCACCGGAAUACCAGCAUCGUCUUGAUGCCCUUGGAAGUCCGGUCUGAUGAGUCCCAGCUGGACGAAACAGC` ?
Response given: range 1

Challenge: How about `GCUGUCACCGGAAUACCAGCAUCGUCUUGAUGCCCUUGGAAGUCCGGUCUGAUGAGUCCUAGACGGACGAAACAGC` ?
Response given: range 2

Challenge: How about `GCUGUCACCGGAAUACCAGCAUCGUCUUGAUGCCCUUGGAAGUCCGGUCUGAUGAGUCCAUCUAGGACGAAACAGC` ?
Response given: range 3

Challenge: How about `GCUGUCACCGGAAUACCAGCAUCGUCUUGAUGCCCUUGGAAGUCCGGUCUGAUGAGUCCGAAACGGACGAAACAGC` ?
Response given: range 1
